# Tested on: A. baumannii AB92247
# Assay Explanation: microbe, parasite or virus in culture
# Assay type: cell-based, Acinetobacter baumannii
# Condition Description: AB92247, 18 h
Non-standard residues stand in square brackets, D forms with d. Residues, ends and D or L forms follow the SMILES beside them. *: point of attachment. Lys(Me3) = C[N+](C)(C)CCCC[C@H](N)C(=O)O; Lys(Me2) = CN(C)CCCC[C@H](N)C(=O)O; Lys(Me) = CNCCCC[C@H](N)C(=O)O; Octanoyl = CCCCCCCC(=O)*
Measured Attribute: MIC (µg/mL)
Your answer is read as µg/mL, so omit the unit and give the number.

1. CCCCCCCC(=O)N[C@@H](CCCCN)C(=O)NCCCN(CCCNC(=O)[C@H](CCCCN)NC(=O)CCCCCCC)CC(=O)N[C@@H](CCCCN)C(N)=O [UTBLP 1]    64

Prompt line: Quote A. baumannii AB92247 MIC for entry CCCCCCCC(=O)NCCCC[C@H](NC(=O)CCCCCCC)C(=O)N[C@@H](CCCCNC)C(=O)N[C@@H](CCCCNC)C(=O)N[C@@H](CCCCNC)C(=O)N[C@@H](CCCCNC)C(N)=O [UTBLP 6] (Octanoyl-K(Octanoyl)[Lys(Me)][Lys(Me)][Lys(Me)][Lys(Me)]-NH2) .
Response line: 32

Prompt line: Give reported MIC for CCCCCCCC(=O)NCCCC[C@H](NC(=O)CCCCCCC)C(=O)N[C@@H](CCCC[N+](C)(C)C)C(=O)N[C@@H](CCCC[N+](C)(C)C)C(=O)N[C@@H](CCCC[N+](C)(C)C)C(=O)N[C@@H](CCCC[N+](C)(C)C)C(N)=O [UTBLP 8] (Octanoyl-K(Octanoyl)[Lys(Me3)][Lys(Me3)][Lys(Me3)][Lys(Me3)]-NH2) (A. baumannii AB92247)
Response line: 128

Prompt line: Fill: MIC (A. baumannii AB92247) for this compound CCCCCCCC(=O)NCCCC[C@H](NC(=O)CCCCCCC)C(=O)N[C@@H](CCCCN(C)C)C(=O)N[C@@H](CCCCN(C)C)C(=O)N[C@@H](CCCCN(C)C)C(=O)N[C@@H](CCCCN(C)C)C(N)=O [UTBLP 7] (Octanoyl-K(Octanoyl)[Lys(Me2)][Lys(Me2)][Lys(Me2)][Lys(Me2)]-NH2)
Response line: 32

These entries and their values trace back to paper PMC8963254.
